// reported koff per item
Target: human TIM-3 coupled to Fc (human, UniProt Q8TDQ0 22-200)
Test: SPR; culture supernatant
Express your answer in s⁻¹, writing the number without its unit.

Lab note: anti-TIM-3 antibody clone 1H9 (antibody, V domains shown) VH: QVQLQQWGAGLLKPSETLSLTCAVYGGSFSGYYWSWIRQPPGKGLEWIGEINHSGSTNYNPSLKSRVTISVDTSKNQFSLKLSSVTAADTAVYYCARGYVAGFDDWGQGTLVTVSS VL: QSVLTQPPSVSAAPGQKVTISCSGSSSNIGNNYVSWYQQLPGTAPKLLIYGNNWRPSGIPDRFSGSKSGTSATLGITGLQTGDEADYYCDSWDSADASGVFGGGTKLTVL gave koff of 0.00016

Lab note: anti-TIM-3 antibody clone 2G6 (antibody, V domains shown) VH: QVQLQQWGAGLLKPSETLSLTCAVYGGSFSGYYWSWIRQPPGKGLEWIGEINHSGSTNYNPSLKSRVTISVDTSKNQFSLKLSSVTAADTAVYYCARGYVAGFDSWGQGTLVTVSS VL: QSVLTQPPSVSAAPGQKVTISCSGSSSNIGNNYVSWYQQLPGTAPKLLIYGNNWRPSGIPDRFSGSKSGTSATLGITGLQTGDEADYYCDSWDSSDSSGVFGGGTKLTVL gave koff of 0.00013

# context switch: different binder, same koff
Lab note: anti-TIM-3 antibody clone 1F4 (antibody, V domains shown) VH: QVQLQQWGAGLLKPSETLSLTCAVYGGSFSGYYWSWIRQPPGKGLEWIGEINHSGSTNYNPSLKSRVTISVDTSKNQFSLKLSSVTAADTAVYYCARGYVAGYDYWGQGTLVTVSS VL: QSVLTQPPSVSAAPGQKVTISCSGSSSNIGNNYVSWYQQLPGTAPKLLIYGNNWRPSGIPDRFSGSKSGTSATLGITGLQTGDEADYYCDSWDAALSAGVFGGGTKLTVL gave koff of 0.0003
